assayed target: 5-hydroxytryptamine receptor 2B (Homo sapiens)
assay summary: Agonist activity at 5HT2B (unknown origin)
For each entry below, report its log10 EC50 value.
Please keep in mind that the values are log10 of EC50 expressed in nM.

// returns log10 EC50 for Nc1ncc(-c2ncccc2OC(F)(F)F)nc1C(=O)Nc1ncccc1N1CCC(N)C(F)(F)C1 (stereo unspecified) with 5-hydroxytryptamine receptor 2B (Homo sapiens); value = 3.30

// returns log10 EC50 for `Nc1ncc(-c2ncccc2OC(F)(F)F)nc1C(=O)Nc1ncccc1N1CCC(N)CC1` with 5-hydroxytryptamine receptor 2B (Homo sapiens); value = 2.30

// returns log10 EC50 for `Nc1ncc(-c2ncccc2C(F)(F)F)nc1C(=O)Nc1ncccc1N1CCC(N)CC1` with 5-hydroxytryptamine receptor 2B (Homo sapiens); value = 2.20

// returns log10 EC50 for `Nc1ncc(-c2ncccc2F)nc1C(=O)Nc1ncccc1N1CCC(N)CC1` with 5-hydroxytryptamine receptor 2B (Homo sapiens); value = 1.61

// returns log10 EC50 for `Nc1ncc(-c2nc(N3CCOCC3)cc3ccccc23)nc1C(=O)Nc1ncccc1N1CCC(N)CC1` with 5-hydroxytryptamine receptor 2B (Homo sapiens); value = 2.20

// returns log10 EC50 for `Nc1ncc(-c2cccc3[nH]ccc23)nc1C(=O)Nc1ncccc1N1CCC(N)CC1` with 5-hydroxytryptamine receptor 2B (Homo sapiens); value = 2.89

// returns log10 EC50 for `Nc1ncc(-c2nc(N3CCOCC3)ccc2C(F)(F)F)nc1C(=O)Nc1ncccc1N1CCC(N)CC1` with 5-hydroxytryptamine receptor 2B (Homo sapiens); value = 2.18

// returns log10 EC50 for Nc1ncc(-c2ncccc2OC(F)(F)F)nc1C(=O)Nc1ncccc1N1CCC(N)C(F)C1 (stereo unspecified) with 5-hydroxytryptamine receptor 2B (Homo sapiens); value = 1.63

---

assay summary: Oral bioavailability in dog at 3 mg/kg measured upto 24 hrs by LC-MS/MS analysis
Format: ADME, organism-based, Canis lupus familiaris
test settings: in vivo
attribute measured: bioavailability (%)
Give just the number in %; leave the unit off.

Please fill in: bioavailability reported for CC1(N)CCN(c2cccnc2NC(=O)c2nc(-c3ncccc3C(F)(F)F)cnc2N)CC1 [DAROVASERTIB] = 76

---

assay summary: Tmax in dog at 3 mg/kg, po measured upto 24 hrs by LC-MS/MS analysis
Format: ADME, organism-based, Canis lupus familiaris
test settings: in vivo
attribute measured: Tmax (min)
Give just the number in min; leave the unit off.

Please fill in: Tmax reported for CC1(N)CCN(c2cccnc2NC(=O)c2nc(-c3ncccc3C(F)(F)F)cnc2N)CC1 [DAROVASERTIB] = 30

---

assay summary: AUCinfinity in dog at 0.3 mg/kg, iv measured upto 24 hrs by LC-MS/MS analysis
Assay type: ADME, organism-based, Canis lupus familiaris
test settings: in vivo
attribute measured: AUC(0-inf) (µM·h)
Give just the number in µM·h; leave the unit off.

Please fill in: AUC(0-inf) reported for `CC1(N)CCN(c2cccnc2NC(=O)c2nc(-c3ncccc3C(F)(F)F)cnc2N)CC1` = 2.59

---

assay summary: AUCinfinity in mouse at 1 mg/kg, iv measured upto 24 hrs by LC-MS/MS analysis
Type: ADME, organism-based
test settings: in vivo
attribute measured: AUC(0-inf) (µM·h)
Give just the number in µM·h; leave the unit off.

Please fill in: AUC(0-inf) reported for CC1(N)CCN(c2cccnc2NC(=O)c2nc(-c3ncccc3C(F)(F)F)cnc2N)CC1 [DAROVASERTIB] = 1.36

---

assayed target: Protein kinase C beta type (Homo sapiens, UniProt P05771)
Sequence (P05771 whole entry): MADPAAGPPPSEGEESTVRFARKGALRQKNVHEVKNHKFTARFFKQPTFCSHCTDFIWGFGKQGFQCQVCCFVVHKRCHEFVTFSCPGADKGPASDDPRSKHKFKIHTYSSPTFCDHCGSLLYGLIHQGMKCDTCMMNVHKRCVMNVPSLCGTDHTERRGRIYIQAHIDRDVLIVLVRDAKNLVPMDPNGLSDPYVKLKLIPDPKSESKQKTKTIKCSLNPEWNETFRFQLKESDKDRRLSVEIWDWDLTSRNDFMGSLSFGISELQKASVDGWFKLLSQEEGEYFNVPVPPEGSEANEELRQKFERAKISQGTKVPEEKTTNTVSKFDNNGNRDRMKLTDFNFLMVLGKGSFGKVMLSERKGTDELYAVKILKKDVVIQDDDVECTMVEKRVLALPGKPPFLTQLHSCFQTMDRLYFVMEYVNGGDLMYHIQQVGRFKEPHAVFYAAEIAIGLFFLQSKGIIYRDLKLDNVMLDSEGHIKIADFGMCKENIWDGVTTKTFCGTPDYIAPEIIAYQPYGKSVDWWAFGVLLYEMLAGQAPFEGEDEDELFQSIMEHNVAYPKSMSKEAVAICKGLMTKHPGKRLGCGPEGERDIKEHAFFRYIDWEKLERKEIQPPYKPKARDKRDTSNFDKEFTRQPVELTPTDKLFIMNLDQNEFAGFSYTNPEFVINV
assay summary: Inhibition of PKCbeta2 (unknown origin)
attribute measured: IC50 (nM)
Give just the number in nM; leave the unit off.

Please fill in: IC50 reported for `CC1(N)CCN(c2cccnc2NC(=O)c2nc(-c3ncccc3C(F)(F)F)cnc2N)CC1` = 58

---

assayed target: Glycogen synthase kinase-3 beta (Homo sapiens)
Sequence (P49841 whole entry): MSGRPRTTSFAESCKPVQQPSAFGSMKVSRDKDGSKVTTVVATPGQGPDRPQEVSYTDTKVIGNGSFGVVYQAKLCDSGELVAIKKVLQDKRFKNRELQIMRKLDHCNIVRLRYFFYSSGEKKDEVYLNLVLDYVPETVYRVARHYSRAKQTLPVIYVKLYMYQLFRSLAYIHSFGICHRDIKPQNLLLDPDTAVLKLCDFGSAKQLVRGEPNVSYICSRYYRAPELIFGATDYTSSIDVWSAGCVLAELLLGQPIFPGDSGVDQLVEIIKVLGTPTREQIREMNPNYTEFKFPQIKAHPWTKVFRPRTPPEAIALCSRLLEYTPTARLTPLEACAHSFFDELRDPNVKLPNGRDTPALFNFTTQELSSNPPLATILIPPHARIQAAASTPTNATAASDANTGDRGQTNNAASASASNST
# if measured IC50 < 700 nM: condition met  # else: condition not met

Input `Nc1ncc(-c2ncccc2OC(F)(F)F)nc1C(=O)Nc1cnccc1N1CCC(N)CC1` ; condition: IC50 strictly below 700 nM. Does it hold?
condition met

Input `Nc1ncc(-c2cccc3[nH]ncc23)nc1C(=O)Nc1ncccc1N1CCC(N)CC1` ; condition: IC50 strictly below 700 nM. Does it hold?
condition met

Input `Nc1ncc(-c2ncccc2OC(F)(F)F)nc1C(=O)Nc1ccncc1N1CCC(N)CC1` ; condition: IC50 strictly below 700 nM. Does it hold?
condition met

Input `Nc1ncc(-c2nc(N3CCC3)ccc2C(F)(F)F)nc1C(=O)Nc1ncccc1N1CCC(N)CC1` ; condition: IC50 strictly below 700 nM. Does it hold?
condition not met

Input `Nc1ncc(-c2ncccc2C(F)(F)F)nc1C(=O)Nc1cccnc1N1CCC(N)CC1` ; condition: IC50 strictly below 700 nM. Does it hold?
condition not met

Input `Nc1ncc(-c2cccc3[nH]ccc23)nc1C(=O)Nc1ncccc1N1CCC(N)CC1` ; condition: IC50 strictly below 700 nM. Does it hold?
condition met

Input `CN(C)c1ccc(C(F)(F)F)c(-c2cnc(N)c(C(=O)Nc3ncccc3N3CCC(N)CC3)n2)n1` ; condition: IC50 strictly below 700 nM. Does it hold?
condition not met

---

assayed target: 5-hydroxytryptamine receptor 2B (Homo sapiens, UniProt P41595)
Sequence (P41595 whole entry): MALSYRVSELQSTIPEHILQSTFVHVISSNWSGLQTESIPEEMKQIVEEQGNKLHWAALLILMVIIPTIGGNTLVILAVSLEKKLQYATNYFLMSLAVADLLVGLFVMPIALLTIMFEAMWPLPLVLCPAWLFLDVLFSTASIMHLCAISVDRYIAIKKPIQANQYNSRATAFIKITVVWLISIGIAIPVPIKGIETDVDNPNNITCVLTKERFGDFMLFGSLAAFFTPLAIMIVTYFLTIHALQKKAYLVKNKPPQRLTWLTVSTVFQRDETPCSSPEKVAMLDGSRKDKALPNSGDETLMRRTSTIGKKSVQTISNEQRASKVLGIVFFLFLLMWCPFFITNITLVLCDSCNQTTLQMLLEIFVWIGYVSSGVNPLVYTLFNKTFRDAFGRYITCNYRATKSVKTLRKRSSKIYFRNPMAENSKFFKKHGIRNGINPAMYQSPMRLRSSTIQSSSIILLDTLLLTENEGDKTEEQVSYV
assay summary: Agonist activity at 5HT2B (unknown origin)
pEC50: −log10 of the molar value.
For each entry below, report its pEC50 value.

Please fill in: pEC50 reported for `CC1(N)CCN(c2cccnc2NC(=O)c2nc(-c3ncccc3C(F)(F)F)cnc2N)CC1` = < 4.52

Please fill in: pEC50 reported for COC1CN(c2cccnc2NC(=O)c2nc(-c3ncccc3OC(F)(F)F)cnc2N)CCC1N (trans isomer) = < 4.52

Please fill in: pEC50 reported for `Nc1ncc(-c2ncccc2C(F)(F)F)nc1C(=O)Nc1ncccc1N1C[C@H]2CC[C@@H](C1)[C@@H]2N` = < 4.52

All values here come from ChEMBL document CHEMBL5537172.
